Target: uPA (recombinant) (Homo sapiens, UniProt P00749)
Construct: purchased Nodia
Experiment: uPA inhibition, chromogenic substrate Biophen CS-61(44)
Type: biochemical
Details: Tris buffer pH 8.8; read-out: IC50 uPA
Exercise: state measured IC50 for each of the compounds provided.

Exercise: State its IC50: N=C(N)Nc1ccc(C(NS(=O)(=O)c2ccccc2)P(=O)(Oc2ccccc2)Oc2ccccc2)cc1 (centres unmarked)
Key: 2.5 to 10 µM

Exercise: Report measured IC50; entry is N=C(N)Nc1ccc(C(NC(=O)OCCOc2ccccc2)P(=O)(Oc2ccccc2)Oc2ccccc2)cc1.O=C(O)C(F)(F)F (centres unmarked) [Compound 30, 2,2,2-trifluoroacetate]
Key: 2.5 to 10 µM

Exercise: Report IC50 for COCCOCCOC(=O)NC(c1ccc(NC(=N)N)cc1)P(=O)(Oc1ccccc1)Oc1ccccc1.O=C(O)C(F)(F)F (centres unmarked) [Compound 28, 2,2,2-trifluoroacetate]
Key: 10 to 250 µM

Exercise: Read off the recorded IC50 for N=C(N)Nc1ccc(C(NC(=O)OCCOCCOCc2cn(CCOCCOCCOCCNC(=O)CCCC[C@H]3SC[C@H]4NC(=O)N[C@H]43)nn2)P(=O)(Oc2ccccc2)Oc2ccccc2)cc1 (some centres unmarked)
Key: 2.5 to 10 µM

Exercise: Write down IC50 measured for item CCN(CC)c1ccc2c(-c3ccccc3C(=O)N3CCN(C(=O)CCCCCCCn4cc(COCCOCCOC(=O)NC(c5ccc(NC(=N)N)cc5)P(=O)(Oc5ccccc5)Oc5ccccc5)nn4)CC3)c3ccc(=[N+](CC)CC)cc-3oc2c1 (centres unmarked)
Key: 2.5 to 10 µM

* * *

Biological target: Thrombine (human plasma) (Homo sapiens)
Construct: purchased Sigma-Aldrich; host or cells: human plasma
Assay: Thrombin inhibition, chromogenic substrate Biophen CS-21(66)
Format: biochemical
Kindly supply the reported IC50 values for the records listed here.

Exercise: Input COCCOC(=O)NC(c1ccc(NC(=N)N)cc1)P(=O)(Oc1ccccc1)Oc1ccccc1 (stereo not shown) [Compound 29, 2,2,2-trifluoroacetate] , output reported IC50.
Key: > 250 µM

Exercise: Given the compound C#CCOCCOCCOC(=O)NC(c1ccc(NC(=N)N)cc1)P(=O)(Oc1ccccc1)Oc1ccccc1.O=C(O)C(F)(F)F (stereo not shown) [Compound 27, 2,2,2-trifluoroacetate] , write its reported IC50.
Key: > 250 µM

Exercise: Determine from records and report IC50 for N=C(N)Nc1ccc(CC(NC(=O)OCc2ccccc2)P(=O)(Oc2ccccc2)Oc2ccccc2)cc1 (stereo not shown) [UPA1, reference compound]
Key: 1 to 2.5 µM

Exercise: Tell me measured IC50 for N=C(N)Nc1ccc(C(NC(=O)OCc2ccccc2)P(=O)(Oc2ccccc2)Oc2ccccc2)cc1 (stereo not shown) [Compound 5a, 2,2,2-trifluoroacetate, reference compound] please.
Key: > 250 µM

Exercise: Tell me measured IC50 for C#CCOCCOCCOC(=O)NC(Cc1ccc(NC(=N)N)cc1)P(=O)(Oc1ccccc1)Oc1ccccc1 (stereo not shown) [UPA2, reference compound] please.
Key: 10 to 250 µM

Exercise: State, in one line, measured IC50 of CCCCCC(=O)NCCOC(=O)NC(c1ccc(NC(=N)N)cc1)P(=O)(Oc1ccccc1)Oc1ccccc1 (stereo not shown)
Key: > 250 µM

Exercise: Check the records and state IC50 for N=C(N)Nc1ccc(C(NC(=O)OCCOCCOCc2cn(CCOCCOCCOCCNC(=O)CN3CCN(CC(=O)O)CCN(CC(=O)O)CCN(CC(=O)O)CC3)nn2)P(=O)(Oc2ccccc2)Oc2ccccc2)cc1 (stereo not shown)
Key: 10 to 250 µM
